Observed pIC50, system hMMP-8 (Homo sapiens, UniProt P22894).
pIC50: −log10 of the molar value.
measurement kind: pIC50

Worked cases, pIC50 given:
compound | observed result
CCCc1ccc(C(=O)Nc2ccc(S(=O)(=O)N(CCN3CCOCC3)[C@@H](C(=O)NO)C(C)C)cc2)cc1 | 8.05
CCCCCc1ccc(C(=O)Nc2ccc(S(=O)(=O)N(CCN3CCOCC3)[C@@H](C(=O)NO)C(C)C)cc2)cc1 | 8.10

I = CC(C)[C@H](C(=O)NO)N(CCN1CCOCC1)S(=O)(=O)c1ccc(NC(=O)c2ccccc2)cc1
II = CCCCCCc1ccc(C(=O)Nc2ccc(S(=O)(=O)N(CCN3CCOCC3)[C@@H](C(=O)NO)C(C)C)cc2)cc1 [Example 10a]
III = CCCCCc1ccc(C(=O)Nc2ccc(S(=O)(=O)N[C@H](Cc3ccccc3)C(=O)NO)cc2)cc1
Ask: Please list these compounds in decreasing order of pIC50. Give your ranking as a list of the labels in the requested order.
Result: II, I, III
